Hey, just so you know, these numbers are from the supplement of paper PMC10307832.

- System: CAL-12T
- ASSAY_NAME: relative viability (nuclei count vs DMSO), 5 days (fraction); higher = more cells survive
- CONDITION_PARAMETERS: first compound 0.253 µM
Param label: returns yes when relative viability < 0.8, returns no otherwise, including exact equality.

Exercise: Please check: relative viability for O=c1cc(-c2cccc3c2Sc2ccccc2S3)oc(N2CCOCC2)c1 + N=C(N)NC(=N)NCCc1ccccc1 [Phenformin] (partner 250 µM) , strictly under 0.8 or not?
Key: yes

Exercise: Please check: relative viability for COc1nc(C)cnc1NS(=O)(=O)c1cccnc1-c1ccc(-c2nnco2)cc1 [Zibotentan] + CC1(C)CCC(c2ccc(Cl)cc2)=C(CN2CCN(c3ccc(C(=O)NS(=O)(=O)c4ccc(N[C@H](CCN5CCOCC5)CSc5ccccc5)c(S(=O)(=O)C(F)(F)F)c4)cc3)CC2)C1 [Navitoclax] (partner 0.5 µM) , strictly under 0.8 or not?
Key: no

Exercise: Please check: relative viability for O=c1cc(-c2cccc3c2Sc2ccccc2S3)oc(N2CCOCC2)c1 + CC1(C)CCC(c2ccc(Cl)cc2)=C(CN2CCN(c3ccc(C(=O)NS(=O)(=O)c4ccc(N[C@H](CCN5CCOCC5)CSc5ccccc5)c(S(=O)(=O)C(F)(F)F)c4)cc3)CC2)C1 [Navitoclax] (partner 0.5 µM) , strictly under 0.8 or not?
Key: no

Exercise: Please check: relative viability for O=c1cc(-c2cccc3c2Sc2ccccc2S3)oc(N2CCOCC2)c1 + CC(=O)Nc1cccc(-n2c(=O)n(C3CC3)c(=O)c3c(Nc4ccc(I)cc4F)n(C)c(=O)c(C)c32)c1 [Trametinib] (partner 0.02 µM) , strictly under 0.8 or not?
Key: yes

====

- System: NCI-H460
- ASSAY_NAME: relative viability (nuclei count vs DMSO), 5 days (fraction); higher = more cells survive
- CONDITION_PARAMETERS: first compound 0.08 µM
MEASUREMENT_NAME: relative viability

Exercise: Can you look up the measured relative viability of COc1nc(C)cnc1NS(=O)(=O)c1cccnc1-c1ccc(-c2nnco2)cc1 [Zibotentan] + Cc1cc(Nc2cc(N3CCN(C)CC3)nc(Sc3ccc(NC(=O)C4CC4)cc3)n2)n[nH]1 [Tozasertib] (partner 0.1 µM) for me?
Key: 0.625

Exercise: Can you look up the measured relative viability of COc1nc(C)cnc1NS(=O)(=O)c1cccnc1-c1ccc(-c2nnco2)cc1 [Zibotentan] + CC(C)C[C@H](NC(=O)[C@H](Cc1ccccc1)NC(=O)c1cnccn1)B(O)O [Bortezomib] (partner 0.002 µM) for me?
Key: 1.25

Exercise: Can you look up the measured relative viability of O=c1cc(-c2cccc3c2Sc2ccccc2S3)oc(N2CCOCC2)c1 + N=C(N)NC(=N)NCCc1ccccc1 [Phenformin] (partner 250 µM) for me?
Key: 0.535

Exercise: Can you look up the measured relative viability of O=c1cc(-c2cccc3c2Sc2ccccc2S3)oc(N2CCOCC2)c1 + Nc1ncn([C@H]2C[C@H](O)[C@@H](CO)O2)c(=O)n1 [Decitabine] (partner 2 µM) for me?
Key: 0.476

Exercise: Can you look up the measured relative viability of COc1nc(C)cnc1NS(=O)(=O)c1cccnc1-c1ccc(-c2nnco2)cc1 [Zibotentan] + C[C@@H](Oc1cc(-c2cnn(C3CCNCC3)c2)cnc1N)c1c(Cl)ccc(F)c1Cl [Crizotinib] (partner 1 µM) for me?
Key: 1.2

Exercise: Can you look up the measured relative viability of O=c1cc(-c2cccc3c2Sc2ccccc2S3)oc(N2CCOCC2)c1 + COc1cccc2cc(-c3nc([C@H]4CC[C@H](C(=O)O)CC4)n4ncnc(N)c34)[nH]c12 [OSI-027] (partner 0.5 µM) for me?
Key: 0.605

Exercise: Can you look up the measured relative viability of COc1nc(C)cnc1NS(=O)(=O)c1cccnc1-c1ccc(-c2nnco2)cc1 [Zibotentan] + Cc1nc(NC(=O)N2CCC[C@H]2C(N)=O)sc1-c1ccnc(C(C)(C)C(F)(F)F)c1 [Alpelisib] (partner 2 µM) for me?
Key: 0.58

Exercise: Can you look up the measured relative viability of COc1nc(C)cnc1NS(=O)(=O)c1cccnc1-c1ccc(-c2nnco2)cc1 [Zibotentan] + Nc1nc2[nH]cc(CCc3ccc(C(=O)N[C@@H](CCC(=O)O)C(=O)O)cc3)c2c(=O)[nH]1 [Pemetrexed] (partner 0.2 µM) for me?
Key: 0.0594

Exercise: Can you look up the measured relative viability of O=c1cc(-c2cccc3c2Sc2ccccc2S3)oc(N2CCOCC2)c1 + CS(=O)(=O)N1CCN(Cc2cc3nc(-c4cccc5[nH]ncc45)nc(N4CCOCC4)c3s2)CC1 [Pictilisib] (partner 1 µM) for me?
Key: 0.289

Exercise: Can you look up the measured relative viability of O=c1cc(-c2cccc3c2Sc2ccccc2S3)oc(N2CCOCC2)c1 + NC(=O)Nc1cc(-c2cccc(F)c2)sc1C(=O)N[C@H]1CCCNC1 [AZD7762] (partner 0.2 µM) for me?
Key: 0.742
